Molecular target: T1, Extracellular domain (ECD) of the canine IL-4 receptor alpha-V5 epitope-AviTag-His Tag (canine)
T1 construct: monomeric form isolated by size exclusion; also called canine IL-4RA-V5-Avi-His; canine IL-4RA
T1 chain: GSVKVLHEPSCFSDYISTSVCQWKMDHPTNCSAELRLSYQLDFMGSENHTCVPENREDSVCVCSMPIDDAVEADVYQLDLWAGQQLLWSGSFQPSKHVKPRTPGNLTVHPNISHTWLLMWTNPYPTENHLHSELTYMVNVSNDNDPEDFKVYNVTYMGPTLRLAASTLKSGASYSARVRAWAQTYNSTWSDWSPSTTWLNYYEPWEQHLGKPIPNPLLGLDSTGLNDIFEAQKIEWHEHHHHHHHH
Experiment: SPR, Fab-SASA captured on BSA;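 also: biacore T200 SPR, Fab-SASA variants from E. coli conditioned medium captured on BSA-coated CM5 chip, canine IL-4RA injected 120 s then 420 s dissociation, 1:1 model fit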
The binders listed here are annotated with their Ratio WT-kd/clone-kd.

Binder	Ratio WT-kd/clone-kd
TB640_005 Fab-SASA VH-V114H (Fab, V domains shown, not shown: SASA tag then His-tag) VH: EVQLVESGGDLVKPGGSLRLSCVASGFTFRDYAMTWVRQAPGKGLQWVSLISGSGGKTYYADAVKGRFTISRDNAKNTLYLQMNSLRAEDTAVYYCAVDRLTKTIRPQYYGLWHWGQGTLVTVSS VL: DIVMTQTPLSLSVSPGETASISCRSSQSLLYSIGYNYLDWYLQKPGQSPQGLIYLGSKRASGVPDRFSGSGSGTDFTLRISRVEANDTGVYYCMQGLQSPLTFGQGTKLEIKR	1.62
TB640_005 Fab-SASA VH-Y110R (Fab, V domains shown, not shown: SASA tag then His-tag) VH: EVQLVESGGDLVKPGGSLRLSCVASGFTFRDYAMTWVRQAPGKGLQWVSLISGSGGKTYYADAVKGRFTISRDNAKNTLYLQMNSLRAEDTAVYYCAVDRLTKTIRPQYRGLWVWGQGTLVTVSS VL: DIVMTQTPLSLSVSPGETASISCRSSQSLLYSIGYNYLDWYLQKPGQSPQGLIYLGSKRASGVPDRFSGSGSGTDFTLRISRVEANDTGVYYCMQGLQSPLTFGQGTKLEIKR	0.62
TB640_005 Fab-SASA VL-I33V (Fab, V domains shown, not shown: SASA tag then His-tag) VH: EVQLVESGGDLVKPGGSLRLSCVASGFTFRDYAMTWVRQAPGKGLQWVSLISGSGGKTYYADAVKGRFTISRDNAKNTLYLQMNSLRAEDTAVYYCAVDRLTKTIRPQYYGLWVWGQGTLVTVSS VL: DIVMTQTPLSLSVSPGETASISCRSSQSLLYSVGYNYLDWYLQKPGQSPQGLIYLGSKRASGVPDRFSGSGSGTDFTLRISRVEANDTGVYYCMQGLQSPLTFGQGTKLEIKR	0.94
